Test system: Mus musculus
Test: Minimum effective dose administered subcutaneously in mouse passive avoidance test
Assay type: functional
Conditions: sc, read-out: MED
valueType: minimal effective dose (mg/kg)

>>> testresult("CCC(=O)N1CCN(S(=O)(=O)c2ccc(C)cc2)CC1")
10
>>> testresult("CCCC(=O)N1CCN(S(=O)(=O)c2ccccc2)CC1")
1
>>> testresult("CCC(=O)N1CCN(S(=O)(=O)c2ccc(F)cc2)CC1")
0.01
>>> testresult("CC(=O)N1CCN(S(=O)(=O)c2ccc(F)cc2)CC1C (centres undefined)")
0.1
>>> testresult("CCCCCC(=O)N1CCN(S(=O)(=O)c2ccc(F)cc2)CC1")
1
>>> testresult("CCC(=O)N1CCN(S(=O)(=O)c2ccccc2)CC1")
0.1
